Test system: NCI-H322M lung
Test: NCI-60 one-dose screen, 48 h (100 = growth as untreated, 0 = no growth, -100 = all killed)
Conditions: 10 µM unless noted
The panel holds about 83,000 compounds, 20% with a hit somewhere; the sample as a whole holds those more often.
Could you label it yes (1) if measured growth is 90% or higher, and no (0) otherwise?

Use the examples below as a reference point.
compound	label_value
CCCCCCCCCCCCCCCCCCNC(=O)[C@H]1CSC(c2cccs2)N1 (stereo not given in full)	no (0)
O=C1/C(=C/c2ccc(Cl)cc2)CN(Cc2cn(CCNc3ccnc4cc(Cl)ccc34)nn2)C/C1=C\c1ccc(Cl)cc1	no (0)
COc1cc2c(c(OC)c1OC)-c1ccc(N)c(=O)cc1[C@@H](NC(C)=O)CC2	no (0)
CCOc1cc2c(Cl)ncnc2c(OCC)c1OCC	no (0)
CC(C)CSc1nc(NN)c(C#N)c(-c2ccc(F)cc2)n1	no (0)

Textbook exercise: given the entry Clc1ccc(-c2nc3ccccc3s2)cc1Cl , state whether its growth is greater than or equal to 90%. yes (1)

Textbook exercise: given the entry Cc1ccc(S(=O)(=O)/C(=C\c2ccc(Cl)cc2)C(=O)c2ccccc2)cc1 , state whether its growth is greater than or equal to 90%. yes (1)

Textbook exercise: given the entry Cc1ccc2[nH]c(=O)c3c(c2c1)Oc1ncn2nc(-c4ccco4)nc2c1C3c1ccc(Cl)cc1 (stereo not given) , state whether its growth is greater than or equal to 90%. yes (1)

Textbook exercise: given the entry O=C(O)c1cn(C2CC2)c2cc(N3CCN(C(=O)/C=C/c4ccc(Cl)cc4)CC3)c(F)cc2c1=O , state whether its growth is greater than or equal to 90%. no (0)

Textbook exercise: given the entry COc1ccc2c(c1)[nH]c(=O)c1c3cccc(F)c3cn21 , state whether its growth is greater than or equal to 90%. no (0)

Textbook exercise: given the entry C/C(=N/NC(=S)Nc1ccccc1)c1nc2ccc(Cl)cc2[nH]1 , state whether its growth is greater than or equal to 90%. no (0)

Textbook exercise: given the entry O=c1cc(Cc2ccc([N+](=O)[O-])cc2)[nH]c(=O)[nH]1 , state whether its growth is greater than or equal to 90%. yes (1)

Textbook exercise: given the entry CC(C)(C)n1cc(-c2ccnc(NCCCNS(=O)(=O)c3ccc(C(F)(F)F)cc3)c2)c(-c2cccc(O)c2)n1 , state whether its growth is greater than or equal to 90%. no (0)

Textbook exercise: given the entry COc1ccc2c(c1)C(c1cc(OC)c3c(c1)OCO3)C1=C(COC1=O)N2 (stereo not given) , state whether its growth is greater than or equal to 90%. no (0)

Textbook exercise: given the entry O=c1cc/c(=N\Nc2ccccc2)c(=O)/c1=N/Nc1ccccc1 , state whether its growth is greater than or equal to 90%. yes (1)

Textbook exercise: given the entry CC1(c2ccc(Cl)cc2)OC(=O)CC(=O)O1 , state whether its growth is greater than or equal to 90%. yes (1)

Textbook exercise: given the entry O=C(Nc1ccncc1)C(=O)c1cn(S(=O)(=O)c2ccc(Oc3ccccc3)cc2)c2ccccc12 , state whether its growth is greater than or equal to 90%. yes (1)

Textbook exercise: given the entry COc1ccc(Nc2nn3c(C)cc(C)nc3c2C(=O)Nc2ccc(C)cc2)c(OC)c1 , state whether its growth is greater than or equal to 90%. yes (1)

Source listed as PubChem BioAssay (NCI).
